Ref: ChEMBL document CHEMBL3045422

- Test system: Escherichia coli
- Assay Name: microbe, parasite or virus in culture
- Format: functional
- Description: Antibacterial activity against Escherichia coli
# key: entry, value: MIC
Kindly provide the numeric value in µg/mL only, without the unit symbol.

Use these answered entries as a reference point.
{"columns": ["Molecular String", "Display Unit", "MIC"],
 "data": [
  ["COc1ccc(-[n+]2noc([O-])c2CNc2nc3ccc(Cl)cc3s2)cc1", "µg/mL", 200],
  ["COc1ccc(-[n+]2noc([O-])c2CNc2nc3ccc([N+](=O)[O-])cc3s2)cc1", "µg/mL", 300],
  ["COc1ccc(-[n+]2noc([O-])c2Cn2c(-c3ccc(Cl)cc3)nc3ccccc32)cc1", "µg/mL", 200]
]}

CCOc1ccc(NCc2c([O-])on[n+]2-c2ccc(OC)cc2)cc1 has a reported MIC of 200

For record COc1ccc(-[n+]2noc([O-])c2Cn2c(-c3ccccc3[N+](=O)[O-])nc3ccccc32)cc1 the listed MIC is 200
